# IC50 against UniProt P47712, merged from multiple literature sources
All answers are understood in nM, so give the number only.

O=C(O)c1ccc(OCCc2c(CCNS(=O)(=O)CCN3CC4CC3CO4)n(C(c3ccccc3)c3ccccc3)c3ccc(Cl)cc23)cc1 (stereo not drawn)    1500
O=C1NC(=O)/C(=C/c2ccc(C(=O)NC[C@@H]3C[C@@H](OCc4ccccc4-c4ccccc4)CN3C(=O)c3ccccc3C(=O)c3ccsc3)cc2)S1    1200

# input Tell me measured IC50 for O=C(O)c1ccc(OCCc2c(CCNS(=O)(=O)C3CC3)n(C(c3ccccc3)c3ccccc3)c3ccc(Cl)cc23)cc1 please.
# output 1500

* * *

Collected IC50 for Cytosolic phospholipase A2 (Homo sapiens, UniProt P47712) across several studies; compounds listed below.
// classify: if (IC50 < 300 nM) 1 (yes) else 0 (no)

Completed entries (count: 4):
O=C(O)c1ccc(OCCc2c(CCNS(=O)(=O)c3ccc(C(F)(F)F)cc3)n(C(c3ccccc3)c3ccccc3)c3ccc(Cl)cc23)cc1    0 (no)
O=C1NC(=S)S/C1=C\c1ccc(/C=C\C[C@@H]2C[C@@H](OCc3ccccc3-c3ccccc3)CN2C(=O)c2ccccc2C(=O)c2ccc(F)cc2)cc1    0 (no)
CS(=O)(=O)c1ccccc1S(=O)(=O)NCCc1c(CCCc2ccc(C(=O)O)cc2)c2cc(Cl)ccc2n1C(c1ccccc1)c1ccccc1    1 (yes)
N#CC(=S)Nc1ccc(C(=O)N2C[C@@H](OC(c3ccccc3)c3ccccc3)C[C@H]2CNC(=O)c2ccc(/C=C3\SC(=O)NC3=O)cc2)cc1    0 (no)

Turning now to a further record.
# input In the record for Nc1cccc(-c2ccccc2CO[C@@H]2C[C@@H](CNC(=O)c3ccc(/C=C4\SC(=O)NC4=O)cc3)N(C(=O)c3ccccc3C(=O)c3ccc(F)cc3)C2)c1 , is IC50 less than 300 nM?
# output 1 (yes)

* * *

The following molecules were reported with pIC50 values on Cytosolic phospholipase A2 (Homo sapiens, UniProt P47712) in different studies.
// pIC50 is dimensionless: -log10 of concentration (M)

# input Quote Cytosolic phospholipase A2 (Homo sapiens, UniProt P47712) pIC50 for entry Cc1ccccc1CS(=O)(=O)NCCc1c(CCOc2ccc(C(=O)O)cc2)c2cc(Cl)ccc2n1C(c1ccccc1)c1ccccc1 .
# output 6.82

# input Quote Cytosolic phospholipase A2 (Homo sapiens, UniProt P47712) pIC50 for entry O=C1NC(=S)S/C1=C\c1ccc(NC(=O)[C@@H]2C[C@@H](OCc3ccccc3-c3ccccc3)CN2C(=O)c2ccccc2C(=O)c2ccc(F)cc2)cc1 .
# output 7.08

# input Report value: pIC50, system: Cytosolic phospholipase A2 (Homo sapiens, UniProt P47712), molecule: O=C1NC(=O)/C(=C/c2ccc(C(=O)NC[C@@H]3C[C@@H](Oc4ccccc4C4CCCC4)CN3C(=O)c3ccccc3C(=O)c3ccc(F)cc3)cc2)S1
# output 7.14

# input Param request: pIC50 | system Cytosolic phospholipase A2 (Homo sapiens, UniProt P47712) | item O=C(O)c1ccc(OCCc2c(CCNS(=O)(=O)c3c(F)cccc3C(F)(F)F)n(C(c3ccccc3)c3ccccc3)c3ccc(Cl)cc23)cc1
# output 6.82

# input Please report the measured pIC50 for CC1CCC(C)N1CCS(=O)(=O)NCCc1c(CCOc2ccc(C(=O)O)cc2)c2cc(Cl)ccc2n1C(c1ccccc1)c1ccccc1 (stereo not drawn) tested on Cytosolic phospholipase A2 (Homo sapiens, UniProt P47712).
# output 6.05

# input Please report pIC50 with Cytosolic phospholipase A2 (Homo sapiens, UniProt P47712) for item O=C1NC(=O)/C(=C/c2ccc(C(=O)NC[C@@H]3C[C@H](SC(c4ccccc4)(c4ccccc4)c4ccccc4)CN3C(=O)CCc3ccccc3)cc2)S1 .
# output 6.09

# input Give Cytosolic phospholipase A2 (Homo sapiens, UniProt P47712) pIC50 for the following molecule: CC(C)(C)c1ccccc1S(=O)(=O)NCCc1c(CCCc2ccc(C(=O)O)cc2)c2cc(Cl)ccc2n1C(c1ccccc1)c1ccccc1
# output 7.07

# input // fetch pIC50; item: CC1CCN(CCS(=O)(=O)NCCc2c(CCOc3ccc(C(=O)O)cc3)c3cc(Cl)ccc3n2C(c2ccccc2)c2ccccc2)CC1 ; system: Cytosolic phospholipase A2 (Homo sapiens, UniProt P47712)
# output 6.05

# input Give pIC50 for this entry on Cytosolic phospholipase A2 (Homo sapiens, UniProt P47712): O=C1NC(=S)S/C1=C\c1ccc(S(=O)(=O)NC[C@@H]2C[C@@H](SCc3ccccc3-c3ccccc3)CN2C(=O)c2ccccc2C(=O)c2ccc(F)cc2)s1
# output 6.12
